targetOrSystem: UniProt Q9UNQ0
Sequence (Q9UNQ0 whole entry): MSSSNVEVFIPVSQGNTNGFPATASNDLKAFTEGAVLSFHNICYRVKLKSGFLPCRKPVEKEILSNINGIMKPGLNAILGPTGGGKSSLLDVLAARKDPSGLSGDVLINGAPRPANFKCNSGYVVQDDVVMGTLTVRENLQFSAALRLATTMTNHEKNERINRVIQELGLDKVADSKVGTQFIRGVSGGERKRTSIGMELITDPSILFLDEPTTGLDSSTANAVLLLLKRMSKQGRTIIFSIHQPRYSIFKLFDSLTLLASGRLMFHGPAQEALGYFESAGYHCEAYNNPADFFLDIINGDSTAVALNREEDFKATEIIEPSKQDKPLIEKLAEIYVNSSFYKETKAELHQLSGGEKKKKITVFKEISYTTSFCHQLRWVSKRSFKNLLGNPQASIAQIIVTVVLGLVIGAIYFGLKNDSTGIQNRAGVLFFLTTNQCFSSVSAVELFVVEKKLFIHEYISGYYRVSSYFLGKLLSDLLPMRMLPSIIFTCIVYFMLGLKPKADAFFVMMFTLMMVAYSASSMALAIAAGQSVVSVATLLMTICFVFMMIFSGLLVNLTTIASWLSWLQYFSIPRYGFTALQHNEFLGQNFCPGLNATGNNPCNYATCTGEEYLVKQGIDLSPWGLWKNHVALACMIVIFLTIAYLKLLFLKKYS
procedureDetails: TP_TRANSPORTER: ATPase assay in membrane vesicle from BCRP-expressing Lactococcus lactis cells
Assay type: functional, cell membranes, NZ9000
property: Activity

Solved entries:
[[record]]
linenotation = "C[C@]12CC[C@H]3[C@@H](CCC4=CC(=O)CC[C@@]43C)[C@@H]1CC[C@@H]2O"
reportedvalue = "substrate []"

[[record]]
linenotation = "C[C@]12CC[C@@H]3c4ccc(O)cc4CC[C@H]3[C@@H]1CC[C@@H]2O"
reportedvalue = "substrate []"

[[record]]
linenotation = "CC(=O)[C@H]1CC[C@H]2[C@@H]3CCC4=CC(=O)CC[C@]4(C)[C@H]3CC[C@]12C"
reportedvalue = "substrate []"

[[record]]
linenotation = "COc1cccc2c1C(=O)c1c(O)c3c(c(O)c1C2=O)C[C@@](O)(C(C)=O)C[C@@H]3O[C@H]1C[C@H](N)[C@H](O)[C@H](C)O1"
reportedvalue = "substrate []"

[[record]]
linenotation = "CC(C)CCC[C@@H](C)[C@H]1CC[C@H]2[C@@H]3CC=C4C[C@@H](O)CC[C@]4(C)[C@H]3CC[C@]12C"
reportedvalue = "substrate []"


Please turn your attention to the following entry.
Request: # get_value(readout='Activity', item= `CC/C(=C(\c1ccccc1)c1ccc(OCCN(C)C)cc1)c1ccccc1` )
Response: substrate []
